# systemName: Macrophage migration inhibitory factor (Homo sapiens)
# experimentDescription: Inhibition of MIF in human PBMC assessed as MIF secretion at 10 uM after 5 hrs by ELISA
recordedEndpoint: inhibition (%)

FC(F)(F)c1cccc(-n2cc(C3=NOC(CN4CCOCC4)C3)c3ccccc32)c1 (stereo unspecified): 0

A = O=C1CCCN1C1CC(c2cn(-c3cccc(C(F)(F)F)c3)c3ccccc23)=NO1 (stereo unspecified)
B = COc1ccc(C2CC(c3ccoc3)=NO2)cc1 (stereo unspecified)
input: # argmax over inhibition for candidates A and B # respond with the chosen item's label
output: B
(B: 38%, A: 0%)

====

# systemName: Macrophage migration inhibitory factor (Homo sapiens) (UniProt P14174)
# Sequence (whole entry): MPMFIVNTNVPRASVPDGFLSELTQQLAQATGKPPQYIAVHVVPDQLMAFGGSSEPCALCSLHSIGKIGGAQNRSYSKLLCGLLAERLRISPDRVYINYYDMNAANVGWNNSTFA
# experimentDescription: Inhibition of MIF in human PBMC assessed as MIF secretion at 10 uM after 5 hrs by ELISA
recordedEndpoint: inhibition (%)

Some compounds with recorded inhibition:
COC(=O)CC1(C(=O)OC)CC(c2ccoc2)=NO1 (stereo not drawn): 0
O=C1c2ccccc2C(=O)N1C1CC(c2ccoc2)=NO1 (stereo not drawn): 49
CC1(C(=O)O)CC(c2cn(-c3cccc(C(F)(F)F)c3)c3ccccc23)=NO1 (stereo not drawn): 41
COc1ccc(C2CC(c3cn(-c4cccc(C(F)(F)F)c4)c4ccccc34)=NO2)cc1 (stereo not drawn): 0
CC(C)(C)C(=O)OC1CC(c2cn(-c3cccc(C(F)(F)F)c3)c3ccccc23)=NO1 (stereo not drawn): 0

I = Fc1ccc(C2CC(c3ccoc3)=NO2)cc1 (stereo not drawn)
II = c1cc(C2=NOC(CN3CCOCC3)C2)co1 (stereo not drawn)
input: Among I and II , whose measured inhibition is the smaller figure? Write down the label attached to your selection.
output: I

P = FC(F)(F)c1cccc(-n2cc(C3=NOC(C4CCCCC4)C3)c3ccccc32)c1 (stereo not drawn)
Q = O=C1CCCN1C1CC(c2ccoc2)=NO1 (stereo not drawn)
R = c1ccc(C2CC(c3ccoc3)=NO2)cc1 (stereo not drawn)
S = FC(F)(F)c1ccc(C2CC(c3cn(-c4cccc(C(F)(F)F)c4)c4ccccc34)=NO2)cc1 (stereo not drawn)
T = c1cc(C2=NOC(C3CCCCC3)C2)co1 (stereo not drawn)
input: List these items ordered by inhibition, big to small. Please reply with the labels ordered as requested. Many thanks.
output: R, S, T, P, Q

P = FC(F)(F)c1cccc(-n2cc(C3=NOC(c4ccccc4)C3)c3ccccc32)c1 (stereo not drawn)
Q = CC(C)(C)C(=O)OC1CC(c2ccoc2)=NO1 (stereo not drawn)
R = c1ccc2c(c1)ccn2CC1CC(c2ccoc2)=NO1 (stereo not drawn)
S = O=C1c2ccccc2C(=O)N1C1CC(c2cn(-c3cccc(C(F)(F)F)c3)c3ccccc23)=NO1 (stereo not drawn)
input: Would you mind ranking these compounds by ascending inhibition? In plain terms: list the labels in the order you were asked to.
output: S, P, Q, R
(S: 0%, P: 11%, Q: 40%, R: 68%)

A = OCCC1CC(c2ccoc2)=NO1 (stereo not drawn)
B = COC(=O)CC1(C(=O)OC)CC(c2cn(-c3cccc(C(F)(F)F)c3)c3ccccc23)=NO1 (stereo not drawn)
input: Hi there! Just curious which has the higher inhibition between A and B . Please reply using the label of the selected record.
output: A
(A: 39%, B: 0%)
